- EXPERIMENTAL DETAILS: MTT assay, cytotoxicity
- Assay type: cell-based, human
- EXPERIMENTAL PARAMETERS: HaCaT, 24 h incubation at 37 °C, 0.5–500 μg/mL, six replicates per concentration, repeated at least twice
Where a SMILES comes first, the peptide text is derived from it. The star is where a group is joined. Myristoyl = CCCCCCCCCCCCCC(=O)*
MEASUREMENT NAME: IC50 (µg/mL)
Write the answer as a number in µg/mL, unit excluded.

Ask: GET /values?readout=IC50&item= CCCCCCCCCCCCCC(=O)N[C@@H](CO)C(=O)N[C@@H](CCCNC(=N)N)C(=O)N[C@@H](CCCNC(=N)N)C(N)=O [Peptide 1, C14-SRR-NH2] (Myristoyl-Ser-Arg-Arg-NH2)
Result: 1.41

====

Task for the reader: assign each of the following compounds its reported HC50 (hemolytic activity).
- System: human red blood cells (RBCs)
- EXPERIMENTAL DETAILS: Hemolysis assay
- Format: cell-based
- EXPERIMENTAL PARAMETERS: human RBCs 4% (v/v) in PBS, 60 min, 37 °C, absorbance 540 nm, 1–512 µg/mL; triplicate
Where a SMILES comes first, the peptide text is derived from it. The star is where a group is joined. βGlcNAc = CC(=O)N[C@@H]1[C@@H](O)[C@H](O)[C@@H](CO)O[C@H]1*; Stearoyl = CCCCCCCCCCCCCCCCCC(=O)*; Palmitoyl = CCCCCCCCCCCCCCCC(=O)*; Myristoyl = CCCCCCCCCCCCCC(=O)*
Write the answer as a number in µg/mL, unit excluded.

Ask: GET /values?readout=HC50 (hemolytic activity)&item= CCCCCCCCCCCCCCCC(=O)N[C@@H](CO)C(=O)N[C@@H](CCCNC(=N)N)C(=O)N[C@@H](CCCNC(=N)N)C(N)=O [Peptide 4, C16-SRR-NH2] (Palmitoyl-Ser-Arg-Arg-NH2)
Result: 75.46

Ask: GET /values?readout=HC50 (hemolytic activity)&item= CCCCCCCCCCCCCCCC(=O)N[C@@H](CCCNC(=N)N)C(=O)N[C@@H](CO)C(=O)N[C@@H](CCCNC(=N)N)C(N)=O [Peptide 5, C16-RSR-NH2] (Palmitoyl-Arg-Ser-Arg-NH2)
Result: 82.21

Ask: GET /values?readout=HC50 (hemolytic activity)&item= CCCCCCCCCCCCCCCC(=O)N[C@@H](CCCNC(=N)N)C(=O)N[C@@H](CCCNC(=N)N)C(=O)N[C@@H](CO[C@@H]1O[C@H](CO)[C@@H](O)[C@H](O)[C@H]1NC(C)=O)C(N)=O [Peptide 15, C16-RRS(GlcNAc)-NH2] (Palmitoyl-Arg-Arg-Ser(βGlcNAc)-NH2)
Result: 111.45

Ask: GET /values?readout=HC50 (hemolytic activity)&item= CCCCCCCCCCCCCCCC(=O)N[C@@H](CO[C@@H]1O[C@H](CO)[C@@H](O)[C@H](O)[C@H]1NC(C)=O)C(=O)N[C@@H](CCCNC(=N)N)C(=O)N[C@@H](CCCNC(=N)N)C(N)=O [Peptide 13, C16-S(GlcNAc)RR-NH2] (Palmitoyl-Ser(βGlcNAc)-Arg-Arg-NH2)
Result: 95.39

Ask: GET /values?readout=HC50 (hemolytic activity)&item= CCCCCCCCCCCCCCCCCC(=O)N[C@@H](CO[C@@H]1O[C@H](CO)[C@@H](O)[C@H](O)[C@H]1NC(C)=O)C(=O)N[C@@H](CCCNC(=N)N)C(=O)N[C@@H](CCCNC(=N)N)C(N)=O [Peptide 16, C18-S(GlcNAc)RR-NH2] (Stearoyl-Ser(βGlcNAc)-Arg-Arg-NH2)
Result: 77.45

Ask: GET /values?readout=HC50 (hemolytic activity)&item= CCCCCCCCCCCCCCCCCC(=O)N[C@@H](CCCNC(=N)N)C(=O)N[C@@H](CCCNC(=N)N)C(=O)N[C@@H](CO)C(N)=O [Peptide 9, C18-RRS-NH2] (Stearoyl-Arg-Arg-Ser-NH2)
Result: 94.31

Ask: GET /values?readout=HC50 (hemolytic activity)&item= CCCCCCCCCCCCCCCCCC(=O)N[C@@H](CCCNC(=N)N)C(=O)N[C@@H](CO[C@@H]1O[C@H](CO)[C@@H](O)[C@H](O)[C@H]1NC(C)=O)C(=O)N[C@@H](CCCNC(=N)N)C(N)=O [Peptide 17, C18-RS(GlcNAc)R-NH2] (Stearoyl-Arg-Ser(βGlcNAc)-Arg-NH2)
Result: 45.25

Ask: GET /values?readout=HC50 (hemolytic activity)&item= CCCCCCCCCCCCCC(=O)N[C@@H](CCCNC(=N)N)C(=O)N[C@@H](CO[C@@H]1O[C@H](CO)[C@@H](O)[C@H](O)[C@H]1NC(C)=O)C(=O)N[C@@H](CCCNC(=N)N)C(N)=O [Peptide 11, C14-RS(GlcNAc)R-NH2] (Myristoyl-Arg-Ser(βGlcNAc)-Arg-NH2)
Result: 364.17

Ask: GET /values?readout=HC50 (hemolytic activity)&item= CCCCCCCCCCCCCCCCCC(=O)N[C@@H](CO)C(=O)N[C@@H](CCCNC(=N)N)C(=O)N[C@@H](CCCNC(=N)N)C(N)=O [Peptide 7, C18-SRR-NH2] (Stearoyl-Ser-Arg-Arg-NH2)
Result: 82.31

Ask: GET /values?readout=HC50 (hemolytic activity)&item= CCCCCCCCCCCCCC(=O)N[C@@H](CCCNC(=N)N)C(=O)N[C@@H](CO)C(=O)N[C@@H](CCCNC(=N)N)C(N)=O [Peptide 2, C14-RSR-NH2] (Myristoyl-Arg-Ser-Arg-NH2)
Result: 186.64

Ask: GET /values?readout=HC50 (hemolytic activity)&item= CCCCCCCCCCCCCCCCCC(=O)N[C@@H](CCCNC(=N)N)C(=O)N[C@@H](CO)C(=O)N[C@@H](CCCNC(=N)N)C(N)=O [Peptide 8, C18-RSR-NH2] (Stearoyl-Arg-Ser-Arg-NH2)
Result: 335.12

Ask: GET /values?readout=HC50 (hemolytic activity)&item= CCCCCCCCCCCCCCCC(=O)N[C@@H](CCCNC(=N)N)C(=O)N[C@@H](CCCNC(=N)N)C(=O)N[C@@H](CO)C(N)=O [Peptide 6, C16-RRS-NH2] (Palmitoyl-Arg-Arg-Ser-NH2)
Result: 75.95

Ask: GET /values?readout=HC50 (hemolytic activity)&item= CCCCCCCCCCCCCC(=O)N[C@@H](CCCNC(=N)N)C(=O)N[C@@H](CCCNC(=N)N)C(=O)N[C@@H](CO)C(N)=O [Peptide 3, C14-RRS-NH2] (Myristoyl-Arg-Arg-Ser-NH2)
Result: 227.01

Ask: GET /values?readout=HC50 (hemolytic activity)&item= CCCCCCCCCCCCCCCCCC(=O)N[C@@H](CCCNC(=N)N)C(=O)N[C@@H](CCCNC(=N)N)C(=O)N[C@@H](CO[C@@H]1O[C@H](CO)[C@@H](O)[C@H](O)[C@H]1NC(C)=O)C(N)=O [Peptide 18, C18-RRS(GlcNAc)-NH2] (Stearoyl-Arg-Arg-Ser(βGlcNAc)-NH2)
Result: 48.04

Ask: GET /values?readout=HC50 (hemolytic activity)&item= CCCCCCCCCCCCCCCC(=O)N[C@@H](CCCNC(=N)N)C(=O)N[C@@H](CO[C@@H]1O[C@H](CO)[C@@H](O)[C@H](O)[C@H]1NC(C)=O)C(=O)N[C@@H](CCCNC(=N)N)C(N)=O [Peptide 14, C16-RS(GlcNAc)R-NH2] (Palmitoyl-Arg-Ser(βGlcNAc)-Arg-NH2)
Result: 73.34

Ask: GET /values?readout=HC50 (hemolytic activity)&item= CCCCCCCCCCCCCC(=O)N[C@@H](CCCNC(=N)N)C(=O)N[C@@H](CCCNC(=N)N)C(=O)N[C@@H](CO[C@@H]1O[C@H](CO)[C@@H](O)[C@H](O)[C@H]1NC(C)=O)C(N)=O [Peptide 12, C14-RRS(GlcNAc)-NH2] (Myristoyl-Arg-Arg-Ser(βGlcNAc)-NH2)
Result: 345.72

====

- EXPERIMENTAL DETAILS: MTT assay, cytotoxicity
- Assay type: cell-based, human
- EXPERIMENTAL PARAMETERS: human, HaCaT keratinocytes, 24 h incubation at 37 °C, 0.5–500 μg/mL, six replicates per concentration, repeated at least twice
Where a SMILES comes first, the peptide text is derived from it. The star is where a group is joined. βGlcNAc = CC(=O)N[C@@H]1[C@@H](O)[C@H](O)[C@@H](CO)O[C@H]1*; Palmitoyl = CCCCCCCCCCCCCCCC(=O)*
MEASUREMENT NAME: IC50 at 24 h

Ask: GET /values?readout=IC50 at 24 h&item= CCCCCCCCCCCCCCCC(=O)N[C@@H](CO[C@@H]1O[C@H](CO)[C@@H](O)[C@H](O)[C@H]1NC(C)=O)C(=O)N[C@@H](CCCNC(=N)N)C(=O)N[C@@H](CCCNC(=N)N)C(N)=O [Peptide 13, C16-S(GlcNAc)RR-NH2] (Palmitoyl-Ser(βGlcNAc)-Arg-Arg-NH2)
Result: 10.6 µg/mL

Ask: GET /values?readout=IC50 at 24 h&item= CCCCCCCCCCCCCCCC(=O)N[C@@H](CCCNC(=N)N)C(=O)N[C@@H](CO[C@@H]1O[C@H](CO)[C@@H](O)[C@H](O)[C@H]1NC(C)=O)C(=O)N[C@@H](CCCNC(=N)N)C(N)=O [Peptide 14, C16-RS(GlcNAc)R-NH2] (Palmitoyl-Arg-Ser(βGlcNAc)-Arg-NH2)
Result: 14.1 µg/mL
